TARGET_OR_SYSTEM: T1, cyno FcRn/b2M (cyno, UniProt Q8SPV9 24-297; Q8SPW0 21-119, biotinylated)
T1 construct: bought recombinant biotinylated protein (Immunitrack ITF05 or ACRO FCM-C82W5); also called cFcRn; cFcRn/cb2M
T1 sequence (Q8SPV9 24-297 limits assumed, chain 1 of 2): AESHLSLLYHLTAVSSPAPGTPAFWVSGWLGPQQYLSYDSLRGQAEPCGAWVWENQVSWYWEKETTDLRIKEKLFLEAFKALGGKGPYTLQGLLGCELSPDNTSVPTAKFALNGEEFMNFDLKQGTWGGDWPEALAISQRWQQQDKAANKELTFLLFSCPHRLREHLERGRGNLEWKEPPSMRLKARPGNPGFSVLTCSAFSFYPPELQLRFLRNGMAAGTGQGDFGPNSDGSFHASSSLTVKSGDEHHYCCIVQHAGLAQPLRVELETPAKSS
T1 sequence (Q8SPW0 21-119 limits assumed, chain 2 of 2): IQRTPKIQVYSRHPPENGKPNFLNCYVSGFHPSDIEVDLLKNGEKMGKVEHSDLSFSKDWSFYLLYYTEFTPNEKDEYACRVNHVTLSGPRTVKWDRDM
EXPERIMENT_DESCRIPTION: SPR pH 7.4;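 further: surface plasmon resonance kinetics, periplasmic extracts diluted 1:10 flowed over immobilized target at 25 °C, 120 s association then 600–3600 s dissociation, buffer with 150 mM NaCl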
VALUE_KIND: koff

| BINDER | RECORDED_VALUE |
| --- | --- |
| T0263018B11 Y35F (VHH, name in Kabat numbering, FLAG3-His6 tagged) VHH: EVQLVESGGGVVQPGGSLRLSCAASGFTFSSYAMFWVRQAPGKGLEWVSAISSGGGSTDYADSVKGRFTISRDNSKNTLYLQMNSLRPEDTALYYCAADTLYTSLTWYSYWGQGTLVTVSS | 0.16 s⁻¹ |
| T0263018B11 A33P (VHH, name in Kabat numbering, FLAG3-His6 tagged) VHH: EVQLVESGGGVVQPGGSLRLSCAASGFTFSSYPMYWVRQAPGKGLEWVSAISSGGGSTDYADSVKGRFTISRDNSKNTLYLQMNSLRPEDTALYYCAADTLYTSLTWYSYWGQGTLVTVSS | 0.045 s⁻¹ |
| T0263018B11 G26H (VHH, name in Kabat numbering, FLAG3-His6 tagged) VHH: EVQLVESGGGVVQPGGSLRLSCAASHFTFSSYAMYWVRQAPGKGLEWVSAISSGGGSTDYADSVKGRFTISRDNSKNTLYLQMNSLRPEDTALYYCAADTLYTSLTWYSYWGQGTLVTVSS | 0.026 s⁻¹ |
| T0263018B11 S52aV (VHH, name in Kabat numbering, FLAG3-His6 tagged) VHH: EVQLVESGGGVVQPGGSLRLSCAASGFTFSSYAMYWVRQAPGKGLEWVSAISVGGGSTDYADSVKGRFTISRDNSKNTLYLQMNSLRPEDTALYYCAADTLYTSLTWYSYWGQGTLVTVSS | 0.095 s⁻¹ |
| T0263018B11 Y98F (VHH, name in Kabat numbering, FLAG3-His6 tagged) VHH: EVQLVESGGGVVQPGGSLRLSCAASGFTFSSYAMYWVRQAPGKGLEWVSAISSGGGSTDYADSVKGRFTISRDNSKNTLYLQMNSLRPEDTALYYCAADTLFTSLTWYSYWGQGTLVTVSS | 0.022 s⁻¹ |
| T0263018B11 A93T (VHH, name in Kabat numbering, FLAG3-His6 tagged) VHH: EVQLVESGGGVVQPGGSLRLSCAASGFTFSSYAMYWVRQAPGKGLEWVSAISSGGGSTDYADSVKGRFTISRDNSKNTLYLQMNSLRPEDTALYYCTADTLYTSLTWYSYWGQGTLVTVSS | 0.12 s⁻¹ |

IN: // koff lookup, key: T0263018B11 Y32N (VHH, name in Kabat numbering, FLAG3-His6 tagged) VHH: EVQLVESGGGVVQPGGSLRLSCAASGFTFSSNAMYWVRQAPGKGLEWVSAISSGGGSTDYADSVKGRFTISRDNSKNTLYLQMNSLRPEDTALYYCAADTLYTSLTWYSYWGQGTLVTVSS
OUT: 0.083 s⁻¹

IN: Cool, now T0263018B11 T100bL (VHH, name in Kabat numbering, FLAG3-His6 tagged) VHH: EVQLVESGGGVVQPGGSLRLSCAASGFTFSSYAMYWVRQAPGKGLEWVSAISSGGGSTDYADSVKGRFTISRDNSKNTLYLQMNSLRPEDTALYYCAADTLYTSLLWYSYWGQGTLVTVSS
OUT: 0.18 s⁻¹

IN: Cool, now T0263018B11 T57Y (VHH, name in Kabat numbering, FLAG3-His6 tagged) VHH: EVQLVESGGGVVQPGGSLRLSCAASGFTFSSYAMYWVRQAPGKGLEWVSAISSGGGSYDYADSVKGRFTISRDNSKNTLYLQMNSLRPEDTALYYCAADTLYTSLTWYSYWGQGTLVTVSS
OUT: 0.035 s⁻¹

IN: Cool, now T0263018B11 W100cL (VHH, name in Kabat numbering, FLAG3-His6 tagged) VHH: EVQLVESGGGVVQPGGSLRLSCAASGFTFSSYAMYWVRQAPGKGLEWVSAISSGGGSTDYADSVKGRFTISRDNSKNTLYLQMNSLRPEDTALYYCAADTLYTSLTLYSYWGQGTLVTVSS
OUT: 0.43 s⁻¹

IN: Cool, now T0263018B11 W100cF (VHH, name in Kabat numbering, FLAG3-His6 tagged) VHH: EVQLVESGGGVVQPGGSLRLSCAASGFTFSSYAMYWVRQAPGKGLEWVSAISSGGGSTDYADSVKGRFTISRDNSKNTLYLQMNSLRPEDTALYYCAADTLYTSLTFYSYWGQGTLVTVSS
OUT: 0.15 s⁻¹

IN: Cool, now T0263018B11 S56A (VHH, name in Kabat numbering, FLAG3-His6 tagged) VHH: EVQLVESGGGVVQPGGSLRLSCAASGFTFSSYAMYWVRQAPGKGLEWVSAISSGGGATDYADSVKGRFTISRDNSKNTLYLQMNSLRPEDTALYYCAADTLYTSLTWYSYWGQGTLVTVSS
OUT: 0.045 s⁻¹

IN: Cool, now T0263018B11 S30E (VHH, name in Kabat numbering, FLAG3-His6 tagged) VHH: EVQLVESGGGVVQPGGSLRLSCAASGFTFESYAMYWVRQAPGKGLEWVSAISSGGGSTDYADSVKGRFTISRDNSKNTLYLQMNSLRPEDTALYYCAADTLYTSLTWYSYWGQGTLVTVSS
OUT: 0.073 s⁻¹

IN: Cool, now T0263018B11 L100aM (VHH, name in Kabat numbering, FLAG3-His6 tagged) VHH: EVQLVESGGGVVQPGGSLRLSCAASGFTFSSYAMYWVRQAPGKGLEWVSAISSGGGSTDYADSVKGRFTISRDNSKNTLYLQMNSLRPEDTALYYCAADTLYTSMTWYSYWGQGTLVTVSS
OUT: 0.51 s⁻¹

IN: Cool, now T0263018B11 G26S (VHH, name in Kabat numbering, FLAG3-His6 tagged) VHH: EVQLVESGGGVVQPGGSLRLSCAASSFTFSSYAMYWVRQAPGKGLEWVSAISSGGGSTDYADSVKGRFTISRDNSKNTLYLQMNSLRPEDTALYYCAADTLYTSLTWYSYWGQGTLVTVSS
OUT: 0.053 s⁻¹
